Molecular target: Thymidylate synthase (Lactobacillus casei)
Sequence (P00469 whole entry): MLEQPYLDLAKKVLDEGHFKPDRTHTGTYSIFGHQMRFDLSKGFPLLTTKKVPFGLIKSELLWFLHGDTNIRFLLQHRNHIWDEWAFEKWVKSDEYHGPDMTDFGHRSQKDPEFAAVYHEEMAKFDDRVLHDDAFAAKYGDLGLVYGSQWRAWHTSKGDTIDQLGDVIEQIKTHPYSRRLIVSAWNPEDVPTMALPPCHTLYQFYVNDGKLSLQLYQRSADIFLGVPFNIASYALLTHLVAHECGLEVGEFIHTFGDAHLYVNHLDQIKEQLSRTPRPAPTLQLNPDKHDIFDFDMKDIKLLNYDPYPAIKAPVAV
Test: Compound was evaluated for the inhibition of Lactobacillus casei thymidylate synthase
Set-up: species or system Lacticaseibacillus casei
MEASURE_NAME: pIC50
A value of pIC50 is the negative decimal logarithm of a concentration given in moles per litre.

pIC50 measured on Cc1c2cnc3nc(N)nc(O)c3c2c(C)n1C = 4.02

---

Target: Thymidylate synthase (Homo sapiens, UniProt P04818)
Sequence (P04818 whole entry): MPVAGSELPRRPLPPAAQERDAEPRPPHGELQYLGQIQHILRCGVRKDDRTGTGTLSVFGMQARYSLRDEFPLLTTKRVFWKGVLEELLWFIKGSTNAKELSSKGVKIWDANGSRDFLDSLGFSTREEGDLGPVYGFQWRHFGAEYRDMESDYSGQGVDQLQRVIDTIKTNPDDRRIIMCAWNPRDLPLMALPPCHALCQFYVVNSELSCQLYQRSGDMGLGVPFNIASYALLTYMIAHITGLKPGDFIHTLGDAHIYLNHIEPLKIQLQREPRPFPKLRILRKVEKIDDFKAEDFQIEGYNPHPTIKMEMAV
Assay: Compound was evaluated for the inhibition of recombinant human thymidylate synthase
MEASURE_NAME: IC50

IC50 measured on Nc1nc(O)c2c(n1)NCC1CN(c3ccc(C(=O)NC(CCC(=O)O)C(=O)O)cc3)CC21 (stereo unspecified) = > 40 µM

---

Target: Dihydrofolate reductase (Homo sapiens, UniProt P00374)
Sequence (P00374 whole entry): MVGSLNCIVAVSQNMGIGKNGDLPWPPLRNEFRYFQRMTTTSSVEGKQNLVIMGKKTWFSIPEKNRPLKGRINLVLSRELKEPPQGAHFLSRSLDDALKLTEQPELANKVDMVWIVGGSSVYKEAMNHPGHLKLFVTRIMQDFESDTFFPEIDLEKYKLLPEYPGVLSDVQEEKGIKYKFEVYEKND
Test: Compound was evaluated for the inhibition of recombinant human Dihydrofolate reductase (DHFR)
MEASURE_NAME: IC50

Record for Nc1nc(O)c2c(n1)NCC1CN(c3ccc(C(=O)NC(CCC(=O)O)C(=O)O)cc3)CC21 (configuration not stated) under target or system Dihydrofolate reductase (Homo sapiens, UniProt P00374): IC50 reported as > 40 µM

Record for Nc1nc(O)c2c(ncc3cn(-c4ccc(C(=O)NC(CCC(=O)O)C(=O)O)cc4)cc32)n1 (configuration not stated) under target or system Dihydrofolate reductase (Homo sapiens, UniProt P00374): IC50 reported as > 80 µM

---

Molecular target: UniProt:P00374
Assay: Compound was evaluated for the inhibition of recombinant human Dihydrofolate reductase (DHFR); no inhibition
pIC50: −log10 of the molar value.
MEASURE_NAME: pIC50

pIC50 measured on Cc1c2cnc3nc(N)nc(O)c3c2c(C)n1C = < 4.02

Sourced from ChEMBL document CHEMBL1125306
